Cited source for all entries: patent US11566007B2

biological target: NRAS G12C (Homo sapiens (Human), UniProt P01111+P62937, G12C); assay: Ras-Raf (BRAF RBD) disruption / FRET / MOA assay, NRAS G12C; format: biochemical; conditions: read-out: IC50* NRAS G12C FRET data
Sequence (P01111 whole entry G12C): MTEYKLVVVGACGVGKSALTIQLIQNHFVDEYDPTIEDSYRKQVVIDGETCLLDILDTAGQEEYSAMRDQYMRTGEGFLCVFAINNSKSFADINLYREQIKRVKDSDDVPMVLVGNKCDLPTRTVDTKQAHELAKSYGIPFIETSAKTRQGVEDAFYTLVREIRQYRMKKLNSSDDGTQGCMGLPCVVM
Sequence (P62937 whole entry): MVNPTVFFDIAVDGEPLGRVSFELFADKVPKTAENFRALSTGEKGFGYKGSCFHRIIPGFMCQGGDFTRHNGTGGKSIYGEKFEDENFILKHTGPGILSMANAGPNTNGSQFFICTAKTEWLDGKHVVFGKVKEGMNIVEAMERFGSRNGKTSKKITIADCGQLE
pIC50: −log10 of the molar value.
parameter: pIC50

C=CC(=O)N1CC[C@H](C(=O)N(C)[C@H](C(=O)N[C@H]2Cc3cccc(c3)-c3ccc4c(c3)c(c(-c3cccnc3[C@H](C)OC)n4CC(F)F)CC(C)(C)COC(=O)[C@@H]3CCCN(N3)C2=O)C(C)C)C1 (atropisomer, axis not shown) ... 6.00 to 7.00

Moving on to the next molecule.
Note to self: pIC50 recorded for C=CC(=O)Nc1cnc(C(=O)N(C)[C@H](C(=O)N[C@H]2Cc3cccc(c3)-c3ccc4c(c3)c(c(-c3cccnc3[C@H](C)OC)n4CC)CC(C)(C)COC(=O)[C@@H]3CCCN(N3)C2=O)C(C)C)n1C (atropisomer, axis not shown) [Example A525] was 7.00 to 8.00
